Data credit: paper PMC6017136

System: Botrytis cinerea Pers
assay procedure: microbe, parasite or virus in culture
condition notes: read-out: Inhibition Ratio (%) / B. cinerea
endpoint name: inhibition at 50 µg/mL

* OC1O[C@H](Cn2cc(-c3ccc(F)cc3)nn2)[C@H](OCc2ccccc2)[C@H]1O (stereo partly drawn) [4-d, Furan glucosyl-1,2,3-triazole (4-d)] | 20.3%
* Cc1cccc(-c2cn(C[C@H]3OC(O)[C@H](O)[C@H]3OCc3ccccc3)nn2)c1 (stereo partly drawn) [4-b, Furan glucosyl-1,2,3-triazole (4-b)] | 10.9%
* CO[C@H]1[C@@H](Cn2cc(-c3ccc([N+](=O)[O-])cc3)nn2)OC(O)[C@@H]1O (stereo partly drawn) [3-e, Furan glucosyl-1,2,3-triazole (3-e)] | 17.1%
* CO[C@@H]1[C@H]2OC(C)(C)O[C@H]2O[C@@H]1Cn1cc(-c2ccc(Cl)cc2)nn1 [1-f, Furan glucosyl-1,2,3-triazole (1-f)] | 71%
* OC1O[C@H](Cn2cc(-c3ccccc3)nn2)[C@H](OCc2ccccc2)[C@H]1O (stereo partly drawn) [4-a, Furan glucosyl-1,2,3-triazole (4-a)] | 19.5%
* CO[C@H]1[C@@H](Cn2cc(-c3ccc(F)cc3)nn2)OC(OC(C)=O)[C@@H]1OC(C)=O (stereo partly drawn) [5-d, Furan glucosyl-1,2,3-triazole (5-d)] | 23.2%
